Values compiled from patent US10214544B2.

Target: PAR4 (Homo sapiens (Human), UniProt Q96RI0)
Sequence (Q96RI0 18-385): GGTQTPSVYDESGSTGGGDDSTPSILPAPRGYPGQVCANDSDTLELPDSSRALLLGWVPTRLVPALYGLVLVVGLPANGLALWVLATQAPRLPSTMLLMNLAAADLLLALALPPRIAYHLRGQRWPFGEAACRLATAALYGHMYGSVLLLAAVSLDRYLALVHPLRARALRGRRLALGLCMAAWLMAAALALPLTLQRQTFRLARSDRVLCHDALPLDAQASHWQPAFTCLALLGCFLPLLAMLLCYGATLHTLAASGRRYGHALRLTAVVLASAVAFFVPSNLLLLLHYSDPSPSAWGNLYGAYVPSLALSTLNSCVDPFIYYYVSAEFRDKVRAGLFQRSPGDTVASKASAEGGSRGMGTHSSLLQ
Assay: FLIPR assay in PAR4-expressing HEK293 cells (PAR4 antagonist activity)
Conditions: inhibition of H-Ala-Phe(4-F)-Pro-Gly-Trp-Leu-Val-Lys-Asn-Gly-NH2-induced intracellular calcium mobilization
Give EC50 for every item shown.
Answers are plain numbers, in nM.

Report EC50 for every entry below.
1. COc1cc(OC)cc(C(=O)Nc2cccc(COc3cc(OC)cc4oc(-c5cn6nc(OC)sc6n5)cc34)c2)c1
2. COc1cc(OCc2cccc(N(C)C(=O)OC(C)(C)C)c2)c2cc(-c3cn4nc(OC)sc4n3)oc2c1
3. COc1cc(OCc2cccc(NC(=O)c3ccc(C)cc3)c2)c2cc(-c3cn4nc(OC)sc4n3)oc2c1
4. COc1cc(OCc2cccc(NC(=O)c3ccc(C(F)(F)F)cc3)c2)c2cc(-c3cn4nc(OC)sc4n3)oc2c1
5. COc1cc(OCc2ccc3c(c2)N(C(C)=O)CC3)c2cc(-c3cn4nc(OC)sc4n3)oc2c1
6. COc1cc(OCc2cccc(NC(=O)c3csc(C(F)(F)F)n3)c2)c2cc(-c3cn4nc(OC)sc4n3)oc2c1
7. COc1cc(OCc2cccc(NC(=O)c3ccccc3C)c2)c2cc(-c3cn4nc(OC)sc4n3)oc2c1

3.4
4.8
1.6
0.99
26
1
0.87

* * *

Target: PAR4 (Homo sapiens (Human))
Assay: FLIPR assay in PAR4-expressing HEK293 cells (PAR4 antagonist activity)
Settings: inhibition of H-Ala-Phe(4-F)-Pro-Gly-Trp-Leu-Val-Lys-Asn-Gly-NH2-induced intracellular calcium mobilization
MEASURED_METRIC: EC50 (nM)
Answers are plain numbers, in nM.

As a guide, the following entries are already answered.
COc1cc(OCc2cccc(N(C)C(=O)c3ccc(F)cc3)c2)c2cc(-c3cn4nc(OC)sc4n3)oc2c1
5.7
COc1cc(OCc2cccc(NC(=O)c3ccc(N(C)C)cc3)c2)c2cc(-c3cn4nc(OC)sc4n3)oc2c1
1.6
COc1cc(OCc2cccc(NC(=O)c3cc(C(F)(F)F)ccc3C(F)(F)F)c2)c2cc(-c3cn4nc(OC)sc4n3)oc2c1
2

Now consider a different molecule.
Form: molecule = COc1cc(OCc2cccc(NC(=O)c3ccc(C)nc3O)c2)c2cc(-c3cn4nc(OC)sc4n3)oc2c1 ; EC50 = 3.6

* * *

Molecular target: PAR4 (Homo sapiens (Human))
Assay: FLIPR assay in PAR4-expressing HEK293 cells (PAR4 antagonist activity)
Details: inhibition of H-Ala-Phe(4-F)-Pro-Gly-Trp-Leu-Val-Lys-Asn-Gly-NH2-induced intracellular calcium mobilization
MEASURED_METRIC: pEC50
One number for each entry, as −log10 of the molar value.

As a guide, the following entries are already answered.
COc1cc(OCc2cccc(N(C)C(C)=O)c2)c2cc(-c3cn4nc(OC)sc4n3)oc2c1
8.42
COc1cc(OCc2cccc(NC(=O)NCc3ccccc3)c2)c2cc(-c3cn4nc(OC)sc4n3)oc2c1
8.32

Report pEC50 for every entry below.
1. COc1cc(OCc2ccc3c(c2)N(C(=O)c2ccccc2OC)CC3)c2cc(-c3cn4nc(OC)sc4n3)oc2c1
2. COc1cc(OCc2cccc(NC(=O)c3cccc(OC(F)(F)F)c3)c2)c2cc(-c3cn4nc(OC)sc4n3)oc2c1

1: 8.35; 2: 8.85

Report pEC50 for every entry below.
1. COc1cc(OCc2cccc3c2CCN3C(=O)c2ccc(F)cc2)c2cc(-c3cn4nc(OC)sc4n3)oc2c1
2. COc1cc(OCc2cccc(NC(=O)c3cc(F)ccc3C)c2)c2cc(-c3cn4nc(OC)sc4n3)oc2c1
3. COc1cc(OCc2cccc(NC(=O)Cc3ccccc3)c2)c2cc(-c3cn4nc(OC)sc4n3)oc2c1

6.85
8.77
8.30

* * *

Give log10(EC50) for every item shown.
Target: PAR4 (Homo sapiens (Human), UniProt Q96RI0)
Test: FLIPR assay in PAR4-expressing HEK293 cells (PAR4 antagonist activity)
Conditions: inhibition of H-Ala-Phe(4-F)-Pro-Gly-Trp-Leu-Val-Lys-Asn-Gly-NH2-induced intracellular calcium mobilization
Short version: log10 scale, EC50, nM.

COc1cc(OCc2cccc(NC(=O)COCc3ccccc3)c2)c2cc(-c3cn4nc(OC)sc4n3)oc2c1
-0.26
COc1cc(OCc2cccc(NC(=O)c3ccc(Br)cn3)c2)c2cc(-c3cn4nc(OC)sc4n3)oc2c1
0.04
COc1cc(OCc2cccc(NC(=O)c3ccnnc3)c2)c2cc(-c3cn4nc(OC)sc4n3)oc2c1
1.08
COc1cc(OCc2cccc(NC(=O)C3CCCCC3)c2)c2cc(-c3cn4nc(OC)sc4n3)oc2c1
0.36
COc1cc(OCc2cccc(NC(=O)c3c(F)cccc3F)c2)c2cc(-c3cn4nc(OC)sc4n3)oc2c1
0.77
COc1cc(OCc2ccc3c(c2)N(C(=O)c2ccc(OC)nc2)CC3)c2cc(-c3cn4nc(OC)sc4n3)oc2c1
0.18
COc1cc(OCc2cccc(NC(=O)c3csc(-c4ccccc4)n3)c2)c2cc(-c3cn4nc(OC)sc4n3)oc2c1
0.34
COc1cc(OCc2cccc(NC(=O)c3ccc(C(F)(F)F)c(F)c3)c2)c2cc(-c3cn4nc(OC)sc4n3)oc2c1
0.18

Report log10(EC50) for every entry below.
1. COc1cc(OCc2cccc(NC(=O)c3ccccc3F)c2)c2cc(-c3cn4nc(OC)sc4n3)oc2c1
2. COc1cc(OCc2cccc(NC(=O)c3ccc(OC(F)(F)F)cc3)c2)c2cc(-c3cn4nc(OC)sc4n3)oc2c1
3. COc1cc(OCc2cccc(NC(=O)c3ccccc3I)c2)c2cc(-c3cn4nc(OC)sc4n3)oc2c1
4. COc1cc(OCc2cccc(NC(=O)c3cccc(C)c3)c2)c2cc(-c3cn4nc(OC)sc4n3)oc2c1
5. COC(=O)c1ccc(C(=O)Nc2cccc(COc3cc(OC)cc4oc(-c5cn6nc(OC)sc6n5)cc34)c2)cc1

[-0.12, 0.15, 0.15, 0.15, 0.08]

Report log10(EC50) for every entry below.
1. COc1cc(OCc2cccc(NC(=O)c3cccc(N(C)C)c3)c2)c2cc(-c3cn4nc(OC)sc4n3)oc2c1
2. COc1cc(OCc2cccc3c2CCN3C(=O)c2cc(OC(F)F)cc(C(F)(F)F)c2)c2cc(-c3cn4nc(OC)sc4n3)oc2c1

[0.58, 0.72]

* * *

Biological target: UniProt Q96RI0
Assay: FLIPR assay in PAR4-expressing HEK293 cells (PAR4 antagonist activity)
Assay type: cell-based
Details: inhibition of H-Ala-Phe(4-F)-Pro-Gly-Trp-Leu-Val-Lys-Asn-Gly-NH2-induced intracellular calcium mobilization
Give EC50 for every item shown.
Numbers only, in nM.

As a guide, the following entries are already answered.
COc1cc(OCc2cccc(NC(=O)c3ccc(OC)nc3)c2)c2cc(-c3cn4nc(OC)sc4n3)oc2c1
1.1
COc1cc(OCc2cccc(NC(=O)c3ccc4ccccc4c3)c2)c2cc(-c3cn4nc(OC)sc4n3)oc2c1
1.8
CNc1cccc(COc2cc(OC)cc3oc(-c4cn5nc(OC)sc5n4)cc23)c1
5.2
COc1cc(OCc2cccc(NC(=O)c3cc(F)cc(OC(F)(F)F)c3)c2)c2cc(-c3cn4nc(OC)sc4n3)oc2c1
2.5
COc1cc(OCc2cccc3c2CCN3)c2cc(-c3cn4nc(OC)sc4n3)oc2c1
37

Report EC50 for every entry below.
1. COc1cc(OCc2cccc(NC(=O)c3ccccn3)c2)c2cc(-c3cn4nc(OC)sc4n3)oc2c1
2. COc1cc(OCc2cccc(NC(=O)C3CCOCC3)c2)c2cc(-c3cn4nc(OC)sc4n3)oc2c1
3. COc1cc(OCc2ccc3c(c2)N(C(=O)c2cc(C)cc(C(F)(F)F)c2)CC3)c2cc(-c3cn4nc(OC)sc4n3)oc2c1
4. COc1cc(OCc2cccc(NC(=O)c3csc(-c4ccc(F)cc4)n3)c2)c2cc(-c3cn4nc(OC)sc4n3)oc2c1
5. COc1cc(OCc2ccc3c(c2)N(C(=O)c2csc(C(F)(F)F)n2)CC3)c2cc(-c3cn4nc(OC)sc4n3)oc2c1

[2.7, 4.6, 6, 120, 0.52]

* * *

Target: PAR4 (Homo sapiens (Human), UniProt Q96RI0)
Assay: FLIPR assay in PAR4-expressing HEK293 cells (PAR4 antagonist activity)
Details: inhibition of H-Ala-Phe(4-F)-Pro-Gly-Trp-Leu-Val-Lys-Asn-Gly-NH2-induced intracellular calcium mobilization
MEASURED_METRIC: pEC50
Numbers only, as −log10 of the molar value.

COc1cc(OCc2cccc(N(C)C(=O)c3ccccc3)c2)c2cc(-c3cn4nc(OC)sc4n3)oc2c1
8.39
COc1cc(OCc2cccc(NC(=O)c3c(F)cc(F)cc3F)c2)c2cc(-c3cn4nc(OC)sc4n3)oc2c1
8.82
COc1cc(OCc2cccc(NC(=O)C3CCCC3)c2)c2cc(-c3cn4nc(OC)sc4n3)oc2c1
8.17
COc1cc(OCc2cccc(NC(=O)c3cccc4ccccc34)c2)c2cc(-c3cn4nc(OC)sc4n3)oc2c1
8.77
COc1cc(OCc2cccc(N(C)C(=O)c3cncnc3)c2)c2cc(-c3cn4nc(OC)sc4n3)oc2c1
8.46

Report pEC50 for every entry below.
1. COc1cc(OCc2cccc(NC(=O)c3csc(-c4cccc(C(F)(F)F)c4)n3)c2)c2cc(-c3cn4nc(OC)sc4n3)oc2c1
2. COc1cc(OCc2cccc(NC(=O)c3cccnc3)c2)c2cc(-c3cn4nc(OC)sc4n3)oc2c1
3. COc1cc(OCc2cccc(NC(=O)c3cc(Cl)cc(OCc4ccccc4)c3)c2)c2cc(-c3cn4nc(OC)sc4n3)oc2c1
4. COc1cc(Cl)cc(C(=O)Nc2cccc(COc3cc(OC)cc4oc(-c5cn6nc(OC)sc6n5)cc34)c2)c1
5. COc1cc(OCc2cccc(NC(=O)c3ccc(OC(F)F)cc3)c2)c2cc(-c3cn4nc(OC)sc4n3)oc2c1
6. COc1cc(OCc2ccc3c(c2)N(C(=O)c2ccc(C)cc2)CC3)c2cc(-c3cn4nc(OC)sc4n3)oc2c1

1. 7.03
2. 8.17
3. 6.17
4. 8.85
5. 8.70
6. 8.47

Report pEC50 for every entry below.
1. COc1cc(OCc2cccc(NC(=O)c3ccccc3OC)c2)c2cc(-c3cn4nc(OC)sc4n3)oc2c1
2. COc1cc(OCc2cccc(N(C)C(=O)c3ccccc3F)c2)c2cc(-c3cn4nc(OC)sc4n3)oc2c1
3. COc1cc(OCc2cccc(NC(=O)c3ccc(C)c(F)c3)c2)c2cc(-c3cn4nc(OC)sc4n3)oc2c1
4. COc1cc(OCc2cccc(NC(=O)c3cc(OC(F)F)cc(C(F)(F)F)c3)c2)c2cc(-c3cn4nc(OC)sc4n3)oc2c1
5. COc1cc(OCc2cccc(N(C)C(=O)c3ccccc3OC)c2)c2cc(-c3cn4nc(OC)sc4n3)oc2c1

1. 8.96
2. 8.48
3. 8.68
4. 9.02
5. 8.74

Report pEC50 for every entry below.
1. COc1cc(OCc2cccc3c2CCN3C(=O)c2ccc(C)cc2)c2cc(-c3cn4nc(OC)sc4n3)oc2c1
2. COc1cc(OCc2ccc3c(c2)N(C(=O)c2csc(-c4ccccc4)n2)CC3)c2cc(-c3cn4nc(OC)sc4n3)oc2c1
3. COc1cc(OCc2cccc(NC(=O)c3ccc(I)cc3)c2)c2cc(-c3cn4nc(OC)sc4n3)oc2c1
4. COc1cc(OCc2cccc3c2CCN3C(=O)c2cncnc2)c2cc(-c3cn4nc(OC)sc4n3)oc2c1

[8.30, 9.26, 8.62, 6.59]
